Target: Glycogen synthase kinase-3 (Sus scrofa, UniProt B2LUN4+I6LNT8)
Test: Inhibition of porcine brain GSK-3alpha/beta using YRRAAVPPSPSLSRHSSPHQSpEDEEE as substrate
observable: IC50 (µM)
Write it as a number; the unit µM goes unstated.

O=C1NC(Nc2ccccc2)=N/C1=C\c1ccc2c(c1)OCO2
0.73

Query: Which IC50 value belongs to NCCOCCOCCOc1ccc(NC2=N/C(=C\c3ccccc3)C(=O)N2)cc1 ?
Response: 40

Query: Name the recorded IC50 for NCCOCCOCCOCCOc1ccc(NC2=N/C(=C\c3ccc4c(c3)OCO4)C(=O)N2)cc1 .
Response: 0.2

Query: I'd like to know its IC50. The compound in question is NCCOCCOCCOc1ccc(NC2=N/C(=C\c3ccc4c(c3)OCO4)C(=O)N2)cc1
Response: 0.27

----------
Target: Dual specificity tyrosine-phosphorylation-regulated kinase 1B (Homo sapiens, UniProt Q9Y463)
Sequence (Q9Y463 whole entry): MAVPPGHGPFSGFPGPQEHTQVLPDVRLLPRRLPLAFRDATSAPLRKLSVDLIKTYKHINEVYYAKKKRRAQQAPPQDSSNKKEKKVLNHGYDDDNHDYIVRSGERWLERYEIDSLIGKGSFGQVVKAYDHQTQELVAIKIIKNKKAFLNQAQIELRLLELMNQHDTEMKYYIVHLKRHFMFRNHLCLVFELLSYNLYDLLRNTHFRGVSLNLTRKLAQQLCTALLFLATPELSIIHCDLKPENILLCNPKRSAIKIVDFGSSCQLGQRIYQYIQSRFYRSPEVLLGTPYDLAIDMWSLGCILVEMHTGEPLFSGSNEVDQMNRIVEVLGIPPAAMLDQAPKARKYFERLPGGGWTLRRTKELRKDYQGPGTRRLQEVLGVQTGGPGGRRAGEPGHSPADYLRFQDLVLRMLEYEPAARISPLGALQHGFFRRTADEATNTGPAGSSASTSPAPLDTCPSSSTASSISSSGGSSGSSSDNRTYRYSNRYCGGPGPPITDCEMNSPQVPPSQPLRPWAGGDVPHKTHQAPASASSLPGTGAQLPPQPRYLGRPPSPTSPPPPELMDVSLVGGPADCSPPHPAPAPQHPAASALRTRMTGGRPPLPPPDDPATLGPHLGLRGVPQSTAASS
observable: IC50 (nM)
Expressed in nM, but write only the number.

NCCOCCOCCOCCOc1ccc(NC2=N/C(=C\c3ccc4c(c3)OCO4)C(=O)N2)cc1
72

Could you now look at the following molecule, please?
Query: What value of measured IC50 is listed for NCCOCCOCCOc1ccc(NC2=N/C(=C\c3ccc4c(c3)OCO4)C(=O)N2)cc1 ?
Response: 110

----------
Target: Dual specificity tyrosine-phosphorylation-regulated kinase 3 (Homo sapiens)
Test: Inhibition of human recombinant DYRK3 expressed in Escherichia coli using GRSRSRSRSRSR as substrate
Known IC50 of a selection of compounds
Return type: number; implicit unit nM.

NCCOCCOCCOCCOc1ccc(NC2=N/C(=C\c3ccc4c(c3)OCO4)C(=O)N2)cc1
180

Query: # query: IC50 | item NCCOCCOCCOc1ccc(NC2=N/C(=C\c3ccc4c(c3)OCO4)C(=O)N2)cc1 | system: Dual specificity tyrosine-phosphorylation-regulated kinase 3 (Homo sapiens)
Response: 200

----------
Biological target: UniProt O35491
Sequence (O35491 whole entry): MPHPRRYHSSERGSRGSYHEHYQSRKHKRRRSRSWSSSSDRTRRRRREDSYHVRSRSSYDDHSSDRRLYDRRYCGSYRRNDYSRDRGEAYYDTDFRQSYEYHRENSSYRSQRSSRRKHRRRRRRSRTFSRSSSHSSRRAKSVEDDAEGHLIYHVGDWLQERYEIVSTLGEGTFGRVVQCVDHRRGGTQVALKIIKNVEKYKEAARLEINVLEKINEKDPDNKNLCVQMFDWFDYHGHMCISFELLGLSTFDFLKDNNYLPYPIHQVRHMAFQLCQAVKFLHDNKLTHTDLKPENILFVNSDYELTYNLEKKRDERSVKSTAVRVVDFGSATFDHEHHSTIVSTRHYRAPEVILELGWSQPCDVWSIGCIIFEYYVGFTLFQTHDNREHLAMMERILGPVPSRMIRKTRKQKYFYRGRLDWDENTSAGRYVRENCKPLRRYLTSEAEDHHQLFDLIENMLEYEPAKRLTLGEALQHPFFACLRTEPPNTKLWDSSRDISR
Test: Inhibition of mouse recombinant CLK2 expressed in Escherichia coli using GRSRSRSRSRSR as substrate
Reported IC50 values for a set of molecules
Reply with just the number (in nM).

NCCOCCOCCOCCOc1ccc(NC2=N/C(=C\c3ccc4c(c3)OCO4)C(=O)N2)cc1
210

Query: Quick one: IC50 of O=C1NC(Nc2ccccc2)=N/C1=C\c1ccc2c(c1)OCO2 ?
Response: 320

Query: // lookup IC50 for NCCOCCOCCOc1ccc(NC2=N/C(=C\c3ccc4c(c3)OCO4)C(=O)N2)cc1
Response: 280

----------
The entries below come with measured pIC50 values attached.
Target: Dual specificity protein kinase CLK3 (Mus musculus)
Sequence (O35492 whole entry): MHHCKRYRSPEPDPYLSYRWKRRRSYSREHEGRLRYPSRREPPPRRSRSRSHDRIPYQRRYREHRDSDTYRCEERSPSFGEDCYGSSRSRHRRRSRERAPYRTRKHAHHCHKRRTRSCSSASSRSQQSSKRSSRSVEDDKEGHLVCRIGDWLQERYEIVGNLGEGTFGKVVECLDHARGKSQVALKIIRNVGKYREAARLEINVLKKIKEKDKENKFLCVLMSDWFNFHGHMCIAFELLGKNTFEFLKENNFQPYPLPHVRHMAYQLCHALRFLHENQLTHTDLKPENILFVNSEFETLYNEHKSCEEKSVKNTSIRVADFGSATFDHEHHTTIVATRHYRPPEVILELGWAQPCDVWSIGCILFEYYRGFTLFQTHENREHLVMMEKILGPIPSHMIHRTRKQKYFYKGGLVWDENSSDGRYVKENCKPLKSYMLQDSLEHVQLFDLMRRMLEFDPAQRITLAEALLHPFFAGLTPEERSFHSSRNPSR
Experiment: Inhibition of mouse recombinant CLK3 expressed in Escherichia coli using GRSRSRSRSRSR as substrate
// returns pIC50 (minus log10 of molar concentration), number only

O=C1NC(Nc2ccccc2)=N/C1=C\c1ccc2c(c1)OCO2
5.52

Query: Could you tell me which pIC50 is on file for NCCOCCOCCOCCOc1ccc(NC2=N/C(=C\c3ccc4c(c3)OCO4)C(=O)N2)cc1 ?
Response: 6.26

Query: Entry under review: NCCOCCOCCOc1ccc(NC2=N/C(=C\c3ccc4c(c3)OCO4)C(=O)N2)cc1 . Reported pIC50?
Response: 6.09

----------
# reported pIC50; entries follow
Biological target: Dual specificity protein kinase CLK1 (Mus musculus)
Sequence (P22518 whole entry): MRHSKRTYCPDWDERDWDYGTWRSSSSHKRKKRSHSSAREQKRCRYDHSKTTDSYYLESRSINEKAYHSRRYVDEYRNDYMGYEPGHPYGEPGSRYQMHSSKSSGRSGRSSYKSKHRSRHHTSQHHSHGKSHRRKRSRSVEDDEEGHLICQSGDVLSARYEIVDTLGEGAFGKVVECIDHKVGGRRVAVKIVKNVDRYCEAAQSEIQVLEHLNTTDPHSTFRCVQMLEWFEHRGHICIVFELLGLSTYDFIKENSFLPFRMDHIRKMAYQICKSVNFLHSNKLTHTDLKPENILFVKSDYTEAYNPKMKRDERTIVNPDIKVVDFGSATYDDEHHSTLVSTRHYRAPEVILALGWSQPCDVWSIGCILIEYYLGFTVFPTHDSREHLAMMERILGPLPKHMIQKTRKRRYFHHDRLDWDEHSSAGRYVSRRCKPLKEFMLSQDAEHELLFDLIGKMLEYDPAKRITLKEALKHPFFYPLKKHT
Assay: Inhibition of mouse recombinant CLK1 expressed in Escherichia coli using GRSRSRSRSRSR as substrate
Entry type: numeric. Quantity: pIC50, the -log10 of concentration in molar units.

Known pIC50 results, listed for orientation:
NCCOCCOCCOc1ccc(NC2=N/C(=C\c3ccc4c(c3)OCO4)C(=O)N2)cc1
7.12
NCCOCCOCCOCCOc1ccc(NC2=N/C(=C\c3ccc4c(c3)OCO4)C(=O)N2)cc1
7.21

Continue with the next compound.
Query: Item under review: O=C1NC(Nc2ccccc2)=N/C1=C\c1ccc2c(c1)OCO2 . Reported pIC50?
Response: 7.46

----------
Target: Dual specificity protein kinase CLK4 (Mus musculus, UniProt O35493)
Sequence (O35493 whole entry): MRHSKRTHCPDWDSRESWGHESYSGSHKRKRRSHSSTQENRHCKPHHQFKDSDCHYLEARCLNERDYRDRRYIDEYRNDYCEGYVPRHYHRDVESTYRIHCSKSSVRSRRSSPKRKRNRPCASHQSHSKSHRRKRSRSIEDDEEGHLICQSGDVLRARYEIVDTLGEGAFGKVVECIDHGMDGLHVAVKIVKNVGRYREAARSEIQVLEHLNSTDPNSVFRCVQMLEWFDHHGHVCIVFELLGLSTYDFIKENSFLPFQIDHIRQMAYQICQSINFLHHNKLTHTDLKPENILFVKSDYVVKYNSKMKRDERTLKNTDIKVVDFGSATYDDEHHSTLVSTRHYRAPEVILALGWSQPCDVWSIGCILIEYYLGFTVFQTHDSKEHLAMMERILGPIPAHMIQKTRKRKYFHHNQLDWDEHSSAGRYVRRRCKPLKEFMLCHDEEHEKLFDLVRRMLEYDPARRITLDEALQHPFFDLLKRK
Assay: Inhibition of mouse recombinant CLK4 expressed in Escherichia coli using GRSRSRSRSRSR as substrate
observable: IC50 (nM)
Give the value in nM but do not write nM after it.

NCCOCCOCCOCCOc1ccc(NC2=N/C(=C\c3ccc4c(c3)OCO4)C(=O)N2)cc1
61

Now look at this one.
Query: Name the recorded IC50 for NCCOCCOCCOc1ccc(NC2=N/C(=C\c3ccc4c(c3)OCO4)C(=O)N2)cc1 .
Response: 81

----------
Target: Dual specificity tyrosine-phosphorylation-regulated kinase 2 (Homo sapiens, UniProt Q92630)
Sequence (Q92630 whole entry): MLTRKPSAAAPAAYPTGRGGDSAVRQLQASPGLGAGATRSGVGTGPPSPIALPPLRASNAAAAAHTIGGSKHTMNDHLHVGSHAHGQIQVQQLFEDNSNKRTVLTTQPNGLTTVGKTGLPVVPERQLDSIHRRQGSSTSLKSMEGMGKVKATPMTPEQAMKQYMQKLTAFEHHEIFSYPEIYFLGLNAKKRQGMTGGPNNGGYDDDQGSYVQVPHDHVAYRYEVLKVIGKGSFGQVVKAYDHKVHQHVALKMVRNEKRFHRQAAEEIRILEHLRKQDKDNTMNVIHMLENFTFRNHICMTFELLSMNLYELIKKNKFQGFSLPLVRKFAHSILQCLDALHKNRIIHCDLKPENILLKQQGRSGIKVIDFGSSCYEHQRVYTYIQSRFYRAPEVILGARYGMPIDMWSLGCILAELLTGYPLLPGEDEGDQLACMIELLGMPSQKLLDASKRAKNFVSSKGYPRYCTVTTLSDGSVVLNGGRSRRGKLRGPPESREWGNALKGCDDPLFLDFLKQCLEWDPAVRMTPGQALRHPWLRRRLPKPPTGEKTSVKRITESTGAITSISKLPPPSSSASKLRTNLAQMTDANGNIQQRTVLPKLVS
Assay: Inhibition of human recombinant DYRK2 expressed in Escherichia coli using GRSRSRSRSRSR as substrate
Listed here are compounds together with their documented pIC50.
Scale explanation: pIC50 corresponds to minus log10 of a concentration expressed in moles per litre.

NCCOCCOCCOc1ccc(NC2=N/C(=C\c3ccc4c(c3)OCO4)C(=O)N2)cc1
6.82

Read the next record carefully.
Query: Fill in the blank: the reported pIC50 of NCCOCCOCCOCCOc1ccc(NC2=N/C(=C\c3ccc4c(c3)OCO4)C(=O)N2)cc1 is ____.
Response: 6.89

----------
Reported IC50 values follow for various compounds
Molecular target: Dual specificity tyrosine-phosphorylation-regulated kinase 1A (Homo sapiens)
Experiment: Inhibition of human recombinant DYRK1A expressed in Escherichia coli using GRSRSRSRSRSR as substrate
Please give a number only; it is taken to be in µM.

NCCOCCOCCOCCOc1ccc(NC2=N/C(=C\c3ccc4c(c3)OCO4)C(=O)N2)cc1
0.028
NCCOCCOCCOc1ccc(NC2=N/C(=C\c3ccccc3)C(=O)N2)cc1
8.5

Query: IC50 for NCCOCCOCCOc1ccc(NC2=N/C(=C\c3ccc4c(c3)OCO4)C(=O)N2)cc1 ?
Response: 0.05

----------
Catalogue of IC50 readings, one per entry.
Molecular target: CDK2/Cyclin A2 (Homo sapiens, UniProt P24941)
Test: Inhibition of human recombinant CDK2/cyclin A using [gamma-33P]-ATP after 30 mins by scintillation counting

NCCOCCOCCOc1ccc(NC2=N/C(=C\c3ccc4c(c3)OCO4)C(=O)N2)cc1
> 10 µM

Query: What value of measured IC50 is listed for NCCOCCOCCOc1ccc(NC2=N/C(=C\c3ccccc3)C(=O)N2)cc1 ?
Response: > 10 µM

Query: So what does the record say about IC50 for O=C1NC(Nc2ccccc2)=N/C1=C\c1ccc2c(c1)OCO2 ?
Response: > 10 µM

Query: Would you kindly share the measured IC50 for NCCOCCOCCOCCOc1ccc(NC2=N/C(=C\c3ccc4c(c3)OCO4)C(=O)N2)cc1 ?
Response: > 10 µM

Query: Quick one: IC50 of O=C1NC(Nc2ccccc2)=N/C1=C\c1ccccc1 ?
Response: > 10 µM

Query: Would you mind telling me what IC50 value was observed for NCCOCCOCCO ?
Response: > 10 µM

----------
Target: Dual specificity tyrosine-phosphorylation-regulated kinase 1B (Homo sapiens)
observable: IC50

# example entries with known answers
NCCOCCOCCO
> 10 µM
O=C1NC(Nc2ccccc2)=N/C1=C\c1ccccc1
> 10 µM

Could you now consider this next compound?
Query: Item under review: NCCOCCOCCOc1ccc(NC2=N/C(=C\c3ccccc3)C(=O)N2)cc1 . Reported IC50?
Response: > 10 µM

----------
Measured pIC50 of individual entries
Target: Dual specificity tyrosine-phosphorylation-regulated kinase 3 (Homo sapiens, UniProt O43781)
Sequence (O43781 whole entry): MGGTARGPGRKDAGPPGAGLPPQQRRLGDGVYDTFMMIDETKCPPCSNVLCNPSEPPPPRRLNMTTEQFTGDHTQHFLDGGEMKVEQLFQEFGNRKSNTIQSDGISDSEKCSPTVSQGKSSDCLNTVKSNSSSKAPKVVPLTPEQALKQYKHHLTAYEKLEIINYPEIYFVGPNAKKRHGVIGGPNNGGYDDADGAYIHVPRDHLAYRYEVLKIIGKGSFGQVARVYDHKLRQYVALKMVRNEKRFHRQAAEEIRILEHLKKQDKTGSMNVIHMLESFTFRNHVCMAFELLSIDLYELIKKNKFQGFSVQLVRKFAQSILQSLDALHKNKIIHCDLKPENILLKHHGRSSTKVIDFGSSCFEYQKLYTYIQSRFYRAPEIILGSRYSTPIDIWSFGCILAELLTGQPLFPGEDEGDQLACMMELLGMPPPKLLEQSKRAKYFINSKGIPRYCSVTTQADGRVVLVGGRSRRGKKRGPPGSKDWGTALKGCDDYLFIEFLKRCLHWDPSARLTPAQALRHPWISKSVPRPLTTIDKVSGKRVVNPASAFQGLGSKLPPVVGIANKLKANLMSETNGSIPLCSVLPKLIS
Assay: Inhibition of human recombinant DYRK3 expressed in Escherichia coli using GRSRSRSRSRSR as substrate
pIC50: −log10 of the molar value.

Solved cases below.
O=C1NC(Nc2ccccc2)=N/C1=C\c1ccccc1
< 5.00
NCCOCCOCCO
< 5.00

Query: Entry NCCOCCOCCOc1ccc(NC2=N/C(=C\c3ccccc3)C(=O)N2)cc1 : reported pIC50 = ?
Response: < 5.00
